Let's look at some compounds and their measured Ratio.
Tested on: Rattus norvegicus
Experiment: Effect on intestinal calcium transport in weanling Sprague-Dawley rat assessed as increase in ratio of serosal to mucosal calcium level at 32 pmol/day administered as 4 consecutive daily doses measured 24 hrs after last dose relative to control
Assay type: functional
When you answer, write just the number.

compoundStructure: C=C1/C(=C/C=C2\CCC[C@]3(C)[C@@H]([C@@H](C)CCCC(C)(C)O)CC[C@@H]23)C[C@@H](O)C(=C)[C@@H]1O
targetEntity: Rattus norvegicus
valueObserved: 0.9
--
compoundStructure: C=C1/C(=C/C=C2\CCC[C@]3(C)[C@@H]([C@H](C)CCCC(C)(C)O)CC[C@@H]23)C[C@@H](O)C(=C)[C@@H]1O
targetEntity: Rattus norvegicus
valueObserved: 2.3
--
compoundStructure: C=C1/C(=C\C=C2/CCC[C@]3(C)[C@@H]([C@H](C)CCCC(C)(C)O)CC[C@@H]23)C[C@@H](O)C(=C)[C@@H]1O
targetEntity: Rattus norvegicus
valueObserved: 2.4

For record C=C1/C(=C\C=C2/CCC[C@]3(C)[C@@H]([C@@H](C)CCCC(C)(C)O)CC[C@@H]23)C[C@@H](O)C(=C)[C@@H]1O the listed Ratio is 5
